Entries and their IC50 values follow.
Target: T1, human ST2L extracellular domain with C-terminal His6 tag (human, UniProt Q01638 19-328)
T1 construct: also called huST2L-ECD; ST2L-ECD
T1 sequence: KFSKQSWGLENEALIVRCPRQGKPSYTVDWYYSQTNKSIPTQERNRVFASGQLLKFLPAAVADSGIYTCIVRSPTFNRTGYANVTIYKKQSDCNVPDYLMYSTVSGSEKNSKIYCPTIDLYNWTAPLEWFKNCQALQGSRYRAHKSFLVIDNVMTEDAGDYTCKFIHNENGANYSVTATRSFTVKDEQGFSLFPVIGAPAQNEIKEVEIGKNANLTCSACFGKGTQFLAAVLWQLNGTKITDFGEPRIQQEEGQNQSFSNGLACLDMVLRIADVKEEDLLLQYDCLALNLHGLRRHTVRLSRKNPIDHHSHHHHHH
Assay: RLB ELISA: biotinylated IL-33 on coated huST2L-ECD, antibody titrated
Write down the numeric answer in µg/mL and omit the unit.

Please report the recorded IC50 for STLM208 (antibody, V domains shown, frameworks VH3-23 / Vk-L6) VH: EVQLLESGGGLVQPGGSLRLSCAASGFTFSIYDMIWVRQAPGKGLEWVSSIRGEGGGTYYADSVKGRFTISRDNSKNTLYLQMNSLRAEDTAVYYCARDPWSTEGSFFVLDYWGQGTLVTVSS VL: EIVLTQSPATLSLSPGERATLSCRASQSVDDDLAWYQQKPGQAPRLLIYDASNRATGIPARFSGSGSGTDFTLTISSLEPEDFAVYYCQQYITAPLTFGQGTKVEIK .
0.47

Requested read-out: IC50. Entry: STLM108 (antibody, V domains shown, frameworks VH3-23 / Vk-L6) VH: EVQLLESGGGLVQPGGSLRLSCAASGFTFSIYDMIWVRQAPGKGLEWVSTIKGEGGGTYYADSVKGRFTISRDNSKNTLYLQMNSLRAEDTAVYYCARDPWSTEGSFFVLDYWGQGTLVTVSS VL: EIVLTQSPATLSLSPGERATLSCRASQSVDDDLAWYQQKPGQAPRLLIYDASNRATGIPARFSGSGSGTDFTLTISSLEPEDFAVYYCQQYIGAPITFGQGTKVEIK
0.23

Any idea what its IC50 is? The binder is STLM123 (antibody, V domains shown, frameworks VH3-23 / Vk-L6) VH: EVQLLESGGGLVQPGGSLRLSCAASGFTFSDYAMFWVRQAPGKGLEWVSAIEGEGGETNYADSVKGRFTISRDNSKNTLYLQMNSLRAEDTAVYYCARDPWSTEGSFFVLDYWGQGTLVTVSS VL: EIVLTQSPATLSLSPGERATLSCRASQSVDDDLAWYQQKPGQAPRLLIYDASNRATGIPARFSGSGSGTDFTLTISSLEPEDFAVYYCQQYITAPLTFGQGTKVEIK
0.28

For STLM216 (antibody, V domains shown, frameworks VH3-23 / Vk-L6) VH: EVQLLESGGGLVQPGGSLRLSCAASGFTFSSYDMFWVRQAPGKGLEWVSDIKGEGGATNYADSVKGRFTISRDNSKNTLYLQMNSLRAEDTAVYYCARDPWSTEGSFFVLDYWGQGTLVTVSS VL: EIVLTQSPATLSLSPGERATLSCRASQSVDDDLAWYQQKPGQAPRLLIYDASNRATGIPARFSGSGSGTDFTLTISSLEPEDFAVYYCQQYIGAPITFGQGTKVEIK , what is its reported IC50?
0.3

Report IC50 for STLM221 (antibody, V domains shown, frameworks VH3-23 / Vk-L6) VH: EVQLLESGGGLVQPGGSLRLSCAASGFTFSIYDMFWVRQAPGKGLEWVSYIRGEGGDTNYADSVKGRFTISRDNSKNTLYLQMNSLRAEDTAVYYCARDPWSTEGSFFVLDYWGQGTLVTVSS VL: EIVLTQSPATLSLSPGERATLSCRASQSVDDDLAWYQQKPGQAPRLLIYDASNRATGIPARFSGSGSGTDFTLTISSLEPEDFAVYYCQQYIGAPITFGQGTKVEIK please.
0.39
